biological target: BSA (UniProt P02769 25-607); experiment: single-point ELISA, BSA control

binder	ELISA A450, A450
1.14.17-1 (antibody, human IgG1, kappa, V domains shown) VH: QVQLLQSGAAVTKPGASVRVSCEASGYNIRDYFMHWVRQAPGQGLQWVGWINPKTGQPNNPRQFQGRVSLTRHASWDFDTFSAYMDLKALRSDDTAVYFCARQRSDYWDFDVWGSGTQVTVSS VL: DIQMTQSPSSLSASVGDTVTITCQANGYLNWYQQRRGKAPKLLIYDGSKLERGVPSRFSGRRWGQEYNLTINNLQPEDIATYFCQVYEFFGPGTRLDLKR	0.1
1.31.35-1 (antibody, human IgG1, kappa, V domains shown) VH: QVQLVQSGAEVTKPGASVRVSCEASGYNIRDYFIHWWRQAPGQGLQWVGWINPKTGQPNNPRQFQGRVSLTRHASWDFDTFSFYMDLKALRSDDTATYFCARQRSDYWDFDVWGSGTQVTVSS VL: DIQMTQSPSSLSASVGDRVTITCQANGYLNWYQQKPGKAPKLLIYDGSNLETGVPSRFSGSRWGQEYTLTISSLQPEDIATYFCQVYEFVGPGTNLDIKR	0.06
1.36.35-1 (antibody, human IgG1, kappa, V domains shown) VH: QVQLVQSGAEVKKPGASVRVSCKASGYNIRDYFMHWWRQAPGQGLQWVGWINPKTGQPNNPRQFQGRVTMTRHASWDFDTFSAYMDLSRLRSDDTATYFCARQRTDYWDFDVWGQGTMVTVSS VL: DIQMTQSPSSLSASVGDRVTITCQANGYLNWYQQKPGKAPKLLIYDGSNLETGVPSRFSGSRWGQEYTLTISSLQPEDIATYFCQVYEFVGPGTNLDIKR	0.06

Sourced from patent US20240034774A1
